ASSAY REMARKS: solvent given as SMILES
COND: in CC#N
MEASUREMENT TYPE: log10 fluorescence lifetime (log10 of the value in ns)
Lab note - fluorescence lifetime converted to log10 from values in ns.

>>> reading("O=C1C(=c2c(=O)c3c4ccccc4cc4cc5ccccc5c2c43)C(=O)c2ccccc21")
0.84
>>> reading("CCN(CC)c1ccc2cc3c(cc2c1)C1(c2ccccc2Oc2ccccc21)c1cc2cc(N(CC)CC)ccc2cc1C3=O")
0.40
>>> reading("Oc1ccc2cc(C3(O)C4CC5CC(C4)CC3C5)ccc2c1 (stereo not given)")
0.91

Lookup: Entry COC(=O)C([NH3+])Cc1ccc2oc(-c3ccncc3)nc2c1 (stereo not given) needs its log10 fluorescence lifetime filled in; supply it.
Found: 0.78

Lookup: Entry N#Cc1cc(-c2ccc(F)cc2)cnc1O needs its log10 fluorescence lifetime filled in; supply it.
Found: 0.72

Lookup: Entry C(/C=C/c1ccc(-n2c3ccccc3c3ccccc32)cc1)=C\c1ccncc1 needs its log10 fluorescence lifetime filled in; supply it.
Found: 0.40
